Reference source for all entries: patent US9187525B2

So I've got a bunch of binders here, and I need their EC50 group, cGMP in GTM-3 cells values.
# Target Entity: T1, natriuretic peptide receptor-B (human)
# T1 chain: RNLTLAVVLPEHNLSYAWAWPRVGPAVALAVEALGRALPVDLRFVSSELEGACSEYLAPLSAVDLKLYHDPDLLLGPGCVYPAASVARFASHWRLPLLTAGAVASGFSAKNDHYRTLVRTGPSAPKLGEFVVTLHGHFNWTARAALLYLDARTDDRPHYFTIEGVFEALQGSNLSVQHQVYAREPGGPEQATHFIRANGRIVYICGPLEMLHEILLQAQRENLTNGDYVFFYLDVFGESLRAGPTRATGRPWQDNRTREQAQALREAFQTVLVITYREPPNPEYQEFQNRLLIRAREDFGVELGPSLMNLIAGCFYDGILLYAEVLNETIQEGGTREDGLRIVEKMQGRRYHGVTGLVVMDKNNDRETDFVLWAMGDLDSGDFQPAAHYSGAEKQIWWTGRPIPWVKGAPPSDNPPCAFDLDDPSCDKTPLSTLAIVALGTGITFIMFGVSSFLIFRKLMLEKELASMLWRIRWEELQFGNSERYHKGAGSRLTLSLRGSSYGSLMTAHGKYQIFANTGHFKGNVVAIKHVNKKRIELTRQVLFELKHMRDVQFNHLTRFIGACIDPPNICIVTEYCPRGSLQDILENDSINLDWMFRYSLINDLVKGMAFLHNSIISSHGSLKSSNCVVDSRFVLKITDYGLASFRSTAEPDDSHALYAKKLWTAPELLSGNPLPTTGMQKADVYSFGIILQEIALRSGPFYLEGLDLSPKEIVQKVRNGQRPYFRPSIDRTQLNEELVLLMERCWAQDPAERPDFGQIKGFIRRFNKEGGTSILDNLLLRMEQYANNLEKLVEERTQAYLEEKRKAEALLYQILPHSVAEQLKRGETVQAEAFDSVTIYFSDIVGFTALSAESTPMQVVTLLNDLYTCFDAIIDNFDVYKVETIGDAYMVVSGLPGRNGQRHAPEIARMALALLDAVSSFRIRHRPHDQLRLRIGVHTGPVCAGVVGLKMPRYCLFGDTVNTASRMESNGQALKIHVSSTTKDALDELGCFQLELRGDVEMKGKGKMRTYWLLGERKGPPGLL
# Protocol: cell-based or functional assay
Numbered stars: 1 amine (or outer) side, 2 acyl side, 3 side chain; on linkers, the order of the positions; unused ones are H or OH. Square brackets hold non-standard residues; d marks the D form. Ends that are not written are not given here. * marks the point of attachment. 1381 = (S)-3,3-dimethylbutan-2-amine, C[C@H](N*)C(C)(C)C; Sni = (S)-nipecotic acid, O=C([C@H]1CCCN([*:1])C1)[*:2]; dDap(Me2) = CN(C)C[C@@H](N)C(=O)O; Hyp = O=C(O)[C@@H]1C[C@@H](O)CN1; NMeL = CN[C@@H](CC(C)C)C(=O)O; orn(Me2) = not defined here; Che = not defined here; Occ = octanoic acid

Recorded EC50 group, cGMP in GTM-3 cells (binder [Occ][Sni]FLL[Hyp][NMeL]DP[1381] (not fully specified (residue 4); printed as Occ-Sni-Phe-leu-Leu-Hyp-Nml-Asp-Pro-1381) [JAL-1509_02] ): ≤ 5 µM

Recorded EC50 group, cGMP in GTM-3 cells (binder [Occ][Sni]F[orn(Me2)]L[Hyp][NMeL]SR[Che] (reading uncertain; also: printed as Occ-Sni-Phe-orn(Me2)-Leu-Hyp-Nml-Ser-Arg-Che) [JAL-1894] ): ≤ 5 µM

Recorded EC50 group, cGMP in GTM-3 cells (binder [Occ][Sni]F[dDap(Me2)][NMeL][Hyp][NMeL]DRI-NH2 [JAL-1578] ): ≤ 5 µM
